- Test system: Sus scrofa
- PROCEDURE SUMMARY: Plasma concentration in pig at 10 mg/kg, po
- Type: ADME, organism-based
- Design: dose 10 mg/kg, route oral
- TEST SETTINGS: in vivo
MEASURED ENDPOINT: concentration

>  <MOLECULE>
N=C(N)c1ccccc1 [BENZAMIDINE]

>  <MEASURED ENDPOINT>
concentration

>  <RESULT>
13.7 µM

$$$$

Pending molecule:
GET /values?readout=concentration&item= NC(=NO)c1ccccc1 [BENZAMIDOXIME]
0.4 µM

----------
- PROCEDURE SUMMARY: Tmax in po dosed pig
- Format: ADME, organism-based, Sus scrofa
- TEST SETTINGS: in vivo
MEASURED ENDPOINT: Tmax (h)
Give your result in h as a bare value.

Please report the recorded Tmax for `N=C(N)c1ccccc1` .
2

----------
- PROCEDURE SUMMARY: Cmax in po dosed pig
- Format: ADME, organism-based, Sus scrofa
- Parameters: route oral
- TEST SETTINGS: in vivo
MEASURED ENDPOINT: Cmax (µM)
Write the answer as a number in µM, unit excluded.

Fill in: Cmax of `N=C(N)c1ccccc1` is ___
13.7

----------
- PROCEDURE SUMMARY: Half life in po dosed pig
- Type: ADME, organism-based, Sus scrofa
- TEST SETTINGS: in vivo
MEASURED ENDPOINT: half-life (h)
A number alone suffices; assume h.

Consider the molecule N=C(N)c1ccccc1 [BENZAMIDINE] and give its measured half-life.
3.7

----------
- PROCEDURE SUMMARY: Mean resident time in po dosed pig
- Format: ADME, organism-based, Sus scrofa
- TEST SETTINGS: in vivo
MEASURED ENDPOINT: MRT (h)
Please reply with the bare figure in h and do not write the unit itself.

Requested read-out: MRT. Entry: `N=C(N)c1ccccc1`
6.16

Reference source: ChEMBL document CHEMBL1138363
